# Test system: SARS-CoV-2 replicon
# Type: cell-based
# SETTINGS: read-out: SARS-CoV-2 Replicon (Huh-7cell) EC50
pEC50: −log10 of the molar value.
RECORDED_ENDPOINT: pEC50

>>> observed_measurement("CC(C)C(=O)O[C@H]1[C@@H](OC(=O)C(C)C)[C@](C#N)(c2ccc3c(N)ncnn23)O[C@@H]1CO[P@](=O)(OCOC(=O)C(C)(C)C)Oc1ccc(C(C)(C)C)cc1 [Compound 44a]")
"8.00 to 8.30"
>>> observed_measurement("COC(C)(C)COC(=O)[C@H](Cc1ccccc1)N[P@](=O)(OC[C@H]1O[C@@](C#N)(c2ccc3c(N)ncnn23)[C@H](OC(=O)C(C)C)[C@@H]1OC(=O)C(C)C)Oc1ccccc1 [Compound 64b]")
"> 8.30"
>>> observed_measurement("CC(=O)OCO[P@](=O)(OC[C@H]1O[C@@](C#N)(c2ccc3c(N)ncnn23)[C@H](OC(=O)C(C)C)[C@@H]1OC(=O)C(C)C)Oc1ccc(C(C)(C)C)cc1 [Compound 43b]")
"8.00 to 8.30"
>>> observed_measurement("CCC(CC)COC(=O)C[C@H](N[P@@](=O)(OC[C@H]1O[C@@](C#N)(c2ccc3c(N)ncnn23)[C@H](OC(=O)C(C)C)[C@@H]1OC(=O)C(C)C)Oc1ccccc1)C(=O)OCC(CC)CC [Compound 62a]")
"6.30 to 7.30"
>>> observed_measurement("CC(C)OC(=O)OCO[P@@](=O)(OC[C@H]1O[C@@](C#N)(c2ccc3c(N)ncnn23)[C@H](OC(=O)C(C)C)[C@@H]1OC(=O)C(C)C)Oc1ccc(C(C)(C)C)cc1 [Compound 24a]")
"> 8.30"

Data origin, for the record: patent EP4617278A1
